TGI overview
# Tested on: OVCAR-3 ovarian
# assayMethodText: NCI tumour cell line growth inhibition, 48 h

stdin: Using the record for COc1cccc(-n2ncc3c(N/N=C/c4ccc(F)cc4)ncnc32)c1 , report its TGI.
stdout: 10.3 µM

stdin: Using the record for COC(=O)C(C)(Cc1ccc2c(c1)nnn2C(C)=O)NC(C)=O (configuration not stated) , report its TGI.
stdout: > 100 µM

stdin: Using the record for O=C(NNC(=O)C1CCN(S(=O)(=O)c2ccc(-c3ccccc3)cc2)CC1)c1ccc(C(F)(F)F)cc1 , report its TGI.
stdout: > 50 µM

stdin: Using the record for COc1cc(Br)c(CC2NCCc3cc(OC)c(OC)cc32)cc1OC (configuration not stated) , report its TGI.
stdout: > 100 µM

stdin: Using the record for CC(C)(Oc1ccc(Cl)cc1)C(=O)NC1C2CC3CC1CC(NS(C)(=O)=O)(C3)C2 (configuration not stated) , report its TGI.
stdout: > 100 µM

stdin: Using the record for COc1ccc(/C=N/Nc2nc(N)nc(N3CCCC3)c2C#N)cc1 , report its TGI.
stdout: 40.2 µM

stdin: Using the record for C=C(C)[C@@H]1CC[C@]2(COC(C)=O)CC[C@]3(C)[C@H](CC[C@@H]4[C@@]5(C)CCCN(C(C)=O)C(C)(C)[C@@H]5CC[C@]43C)[C@@H]12 , report its TGI.
stdout: 3.75 µM

---

# Tested on: PC-3 prostate
# assayMethodText: NCI tumour cell line growth inhibition, 48 h; in the data active means GI50 below about 0.43 µM; inactive means the rest
The reply should name one outcome from active, inactive

Record excerpt, results attached:
Oc1ccc(/C=C/c2ccc(O)cc2)cc1; inactive
CC1=C(C(=O)Nc2ccc(Cl)c(Cl)c2)C(c2ccccc2Cl)NC(=S)N1 (stereo not drawn); inactive
COc1ccc2c(c1)CC[C@@H]1[C@@H]2CC[C@]2(C)C(c3ccsc3)=C(/C=C/C(=O)c3ccccc3)C[C@@H]12; inactive
CN1CCN(Cc2ccc(NC(=O)c3cnc(F)c(C#Cc4cnc(N)c5ncccc45)c3)cc2C(F)(F)F)CC1; active
C=C(C)[C@@H]1CC[C@]2(COC(C)=O)CC[C@]3(C)[C@H](CC[C@@H]4[C@@]5(C)CCCN(C(C)=O)C(C)(C)[C@@H]5CC[C@]43C)[C@@H]12; inactive
c1cc(N2CCN(c3ccc(C4=NCCN4)cc3)CC2)ccc1C1=NCCN1; inactive

stdin: Call for entry CC(=O)OCC1OC(OC2CCCC[Si](c3ccccc3)(c3ccccc3)O2)C(OC(C)=O)C(OC(C)=O)C1OC(C)=O (stereo not drawn) :
stdout: inactive

stdin: Call for entry O=C(NNC(=O)C1CCN(S(=O)(=O)c2ccc(-c3ccccc3)cc2)CC1)c1ccc(C(F)(F)F)cc1 :
stdout: inactive

---

TGI overview
# Tested on: SNB-19 CNS
# assayMethodText: NCI tumour cell line growth inhibition, 48 h
Write down the numeric answer in µM and omit the unit.

# count of solved cases: 3
Cc1nn(-c2ccccc2)c(-n2ccnc2)c1/C=N/Nc1nc(-c2ccc(Cl)c(Cl)c2)cs1; 92.3
Cc1cc(C)nc(NS(=O)(=O)c2ccc(NC(=O)c3cccc4c(Nc5ccc(S(=O)(=O)N=C(N)N)cc5)c5ccc(Cl)cc5nc34)cc2)n1; 53.3
CCN(CCCNC(=O)Cc1cc(=O)oc2cc(N(C)C)ccc12)CCNc1ccnc2cc(Cl)ccc12; 52.7

Shift focus to the following entry.
stdin: Using the record for O=[N+]([O-])c1cc([N+](=O)[O-])c(N2CCCC2)cc1NN=C(c1ccc(O)cc1)c1ccc(O)cc1 , report its TGI.
stdout: 21.6

---

GI50 overview
# Test system: MCF7 breast
# assayMethodText: NCI tumour cell line growth inhibition, 48 h

# count of solved cases: 4
COc1ccc(/C=N/Nc2nc(N)nc(N3CCCC3)c2C#N)cc1; 15300 nM
CC(C)(C)CC(C)(C)c1ccc(OCCSC(=N)N)cc1; 1320 nM
CCCCCCCCCCCCCCCCNC(=O)OC(C)C; 1880 nM
N#Cc1c(-c2ccccc2)n([O-])c2ccccc2[n+]1=O; 33200 nM

Shift focus to the following entry.
stdin: Using the record for C=C1C(=O)O[C@H]2[C@H]1CC/C(COC(=O)NCc1ccc(Cn3c(=O)sn(CCI)c3=O)cc1)=C\CC[C@@]1(C)O[C@@H]21 , report its GI50.
stdout: 1710 nM

---

# Test system: TK-10 renal
# assayMethodText: NCI tumour cell line growth inhibition, 48 h
metric: TGI

# count of solved cases: 2
COc1ccc(/C=C2\CS(=O)(=O)C/C(=C\c3ccc(OC)cc3)C2=O)cc1; 6.91 µM
CC1(C)CC2=C(SC3C=CC=CC3N2)C(=O)C1C(=O)C(N)=O (stereo unspecified); > 100 µM

stdin: Using the record for O=C1c2cc3c(cc2[C@@H]2NC4CCCC14O2)OCO3 (stereo partly specified) , report its TGI.
stdout: > 100 µM

stdin: Using the record for CC1(C)C[C@H]2[C@H](O)C(CO)=C3C(=O)[C@@H](O)[C@]3(C)[C@H]2C1 , report its TGI.
stdout: > 100 µM

stdin: Using the record for Cc1nn(C(=O)Cc2ccccc2)c2c1C(c1ccc3ccccc3c1O)SC(N)=N2 (stereo unspecified) , report its TGI.
stdout: > 100 µM

stdin: Using the record for C=CCOC1=CC(=O)c2ccccc2C1=O , report its TGI.
stdout: 28.9 µM

---

# Tested on: SW-620 colon
# assayMethodText: NCI tumour cell line growth inhibition, 48 h
TGI overview

# count of solved cases: 5
CCN(CC)c1ncnc2c1ncn2CCNC(CO)(CO)CO; > 100 µM
c1cc(N2CCN(c3ccc(C4=NCCN4)cc3)CC2)ccc1C1=NCCN1; > 100 µM
N#Cc1c(-c2ccccc2)n([O-])c2ccccc2[n+]1=O; > 100 µM
Brc1sc(Br)c2c1[C@H](Br)C[C@@H]2Br; > 100 µM
CO[C@]12CC(=O)C3(C(C[C@H]4CC5CCC6=CC(=O)CC[C@]6(OC(C)=O)C5C[C@@]43C)C1)C1C[C@H]3[C@@H]4CCC5=CC(=O)CC[C@]5(OC(C)=O)[C@H]4CC[C@]3(C)C12 (some centres undefined); > 100 µM

stdin: Using the record for COc1ccc(-c2nc3ccc([N+](=O)[O-])cc3c(=O)[nH]2)cc1 , report its TGI.
stdout: > 100 µM

stdin: Using the record for Cc1cc([N+](=O)[O-])c(C)c2c1[nH]c1ccc(O)cc12 , report its TGI.
stdout: > 100 µM

stdin: Using the record for O=c1ccc(N=Nc2ccccc2)ccc1Cl , report its TGI.
stdout: 12.8 µM

stdin: Using the record for C=C1C(=O)O[C@H]2[C@H]1CC/C(COC(=O)NCc1ccc(Cn3c(=O)sn(CCI)c3=O)cc1)=C\CC[C@@]1(C)O[C@@H]21 , report its TGI.
stdout: 3.25 µM

---

# Tested on: OVCAR-8 ovarian
# assayMethodText: NCI tumour cell line growth inhibition, 48 h
metric: TGI (µM)
Write down the numeric answer in µM and omit the unit.

# count of solved cases: 2
C=CCOC1=CC(=O)c2ccccc2C1=O; 12.9
N=C1N(c2ccccc2)C(=S)C(=Nc2ccccc2)N1c1ccccc1; 16.7

Shift focus to the following entry.
stdin: Using the record for COC(=O)[C@](NC(=O)OCc1ccccc1)([C@@H](C)Sc1ccc(C)cc1)C(F)(F)F , report its TGI.
stdout: 60

---

# System: TK-10 renal
# assayMethodText: NCI tumour cell line growth inhibition, 48 h
metric: GI50

stdin: Using the record for COC(=O)c1cc2cc(-c3ccc(OC)cc3)cnc2[nH]1 , report its GI50.
stdout: 4.26 µM

stdin: Using the record for COC(=O)[C@@H]1CCCN1C(=O)[C@@H]1CCCN1C(=O)[C@H](Cc1ccccc1)NC(=S)Nc1cc(C(F)(F)F)cc(C(F)(F)F)c1 , report its GI50.
stdout: 5.41 µM

stdin: Using the record for C=C(C)[C@@H]1C/C=C(\COC(=O)[C@H](OC(C)=O)C(NC(=O)c2ccccc2)c2ccccc2)CC[C@H]2O[C@]2(C)CC/C=C(\C)CC1 (stereo partly specified) , report its GI50.
stdout: 18.8 µM

stdin: Using the record for Nc1nc2cc(-c3ccc4ncc(C(=O)N5CCOCC5)n4c3)ccc2o1 , report its GI50.
stdout: 2.41 µM

stdin: Using the record for NS(=O)(=O)N(c1cc(C(F)(F)F)cc(C(F)(F)F)c1)C1CCN(Cc2ccc(C(F)(F)F)cc2)CC1 , report its GI50.
stdout: 7.03 µM

stdin: Using the record for C=C1C(=O)O[C@H]2[C@H]1CC/C(COC(=O)NCc1ccc(Cn3c(=O)sn(CCI)c3=O)cc1)=C\CC[C@@]1(C)O[C@@H]21 , report its GI50.
stdout: 1.91 µM

---

# System: KM12 colon
# assayMethodText: NCI tumour cell line growth inhibition, 48 h
Where a SMILES comes first, the peptide text is derived from it. [ ]: non-standard residue; d: D form. Ac5c = NC1(C(=O)O)CCCC1
metric: TGI

CCOC(=O)c1oc2c(OC)cc(Cl)c3c2c1CCC3; > 100 µM
Cn1cnc([N+](=O)[O-])c1Sc1nc2ncccc2[nH]1; > 100 µM
CN1CCN(Cc2ccc(NC(=O)c3cnc(F)c(C#Cc4cnc(N)c5ncccc45)c3)cc2C(F)(F)F)CC1; 6.05 µM
CCCn1c2c(c3ccccc3c1=O)C(=O)c1cc3c(cc1-2)OCO3; > 100 µM
NCC(=O)NC1(C(=O)O)CCCC1 (H-Gly-[Ac5c]-OH); > 100 µM
COC(=O)C(Cc1nc2ccc(Cl)cc2[nH]c1=O)/C(=N/O)C(=O)Nc1cccc(Cl)c1C (stereo unspecified); > 100 µM

stdin: Find the measured TGI: item COC(=O)c1sc(=O)n(-c2ccccc2)c1SCc1ccccc1 , target or system KM12 colon.
stdout: > 100 µM

stdin: Find the measured TGI: item COC(=O)C(C)(Cc1ccc2c(c1)nnn2C(C)=O)NC(C)=O (stereo unspecified) , target or system KM12 colon.
stdout: > 100 µM

stdin: Find the measured TGI: item O=CCOCc1cc2c(cc1Br)OCO2 , target or system KM12 colon.
stdout: > 100 µM

stdin: Find the measured TGI: item CC(C)OP(=O)(CCCCCCCCC/C=C/c1ccc2c(c1)OCCOCCOCCOCCO2)OC(C)C , target or system KM12 colon.
stdout: 11 µM

stdin: Find the measured TGI: item CCC(CC)COC(=O)[C@H](C)N[P@](=O)(OC[C@H]1O[C@@](C#N)(c2ccc3c(N)ncnn23)[C@H](O)[C@@H]1O)Oc1ccccc1 , target or system KM12 colon.
stdout: > 100 µM

stdin: Find the measured TGI: item COc1ccc2c(c1)O[C@@H]1[C@@H](OC3OC(CO)C(O)C(O)C3O)Oc3cc(OC)c(OC)cc3[C@]1(O)C2=O (stereo partly specified) , target or system KM12 colon.
stdout: > 100 µM

stdin: Find the measured TGI: item CC12OC3(O)C4C5CC(C6C5C3C61)C42 (stereo unspecified) , target or system KM12 colon.
stdout: > 100 µM

stdin: Find the measured TGI: item COC(=O)C(C(=O)C(=O)Nc1ccc(Br)cc1)c1nc2ccc(Cl)cc2[nH]c1=O (stereo unspecified) , target or system KM12 colon.
stdout: > 100 µM

The origin of these recorded values is PubChem BioAssay (NCI).
